Values were extracted from PubChem BioAssay (NCATS).

Could you please report measured max response for the items listed next?
Experimental Target: Nuclear receptor subfamily 1 group I member 2 (Rattus norvegicus)
Assay Comment: qHTS assay for small molecule activators of the rat pregnane X receptor (rPXR) signaling pathway (AID 651751); note: 0% is about no effect
Condition Details: rPXR reporter cells, luciferase (One-Glo), 24 h
Express it in %; write the number only.

-- ask Let me know recorded max response for c1ccc(CSCc2ccccc2)cc1 , thanks.
-- reply -1.32

-- ask Give recorded max response. CC(=O)OCc1ccc2c(c1)OCO2
-- reply -6.58

-- ask Give reported max response value for CC(/C=C/C=C(C)/C=C/C(=O)O)=C\C=C\C=C(C)\C=C\C=C(C)\C=C\C(=O)O
-- reply 10.8

-- ask Please give measured max response of the following entry: C/C(Cl)=C/CCl
-- reply -2.47

-- ask Return max response (reported value) for this compound: O=C1c2ccccc2C(=O)C1(O)O
-- reply 1

-- ask Name the recorded max response of the compound listed here: c1c[nH]cn1
-- reply -3.01

-- ask Specify max response for CCCCC(CC)COCCCN (stereo not drawn) and stop.
-- reply 1.77

-- ask Tell me its max response given C=CC(=O)CC as the entry.
-- reply 9.91
